Test system: Acinetobacter calcoaceticus ATCC 15437
Test: minimal inhibitory concentration, two-fold agar dilution
Type: cell-based
Conditions: ATCC15437, Muller-Hinton agar, 37°C, 20 hours, read-out: MIC values against the standard strains
Property: MIC (µg/mL)

* CO/N=C(\C(=O)N[C@@H]1C(=O)N2C(C(=O)[O-])=C(CSc3nc(N)cc[n+]3C)CS[C@H]12)c1csc(N)n1 | 8
* CCO/N=C(\C(=O)N[C@@H]1C(=O)N2C(C(=O)[O-])=C(CSc3nc(N)cc(OC)[n+]3C)CS[C@H]12)c1csc(N)n1 | 8
* CC[n+]1ccc(N)nc1SCC1=C(C(=O)[O-])N2C(=O)[C@@H](NC(=O)/C(=N\OC(C)(C)C(=O)O)c3csc(N)n3)[C@H]2SC1 | 8
* CCO/N=C(\C(=O)N[C@@H]1C(=O)N2C(C(=O)[O-])=C(CSc3nc(N)c(N)c(N)[n+]3CC)CS[C@H]12)c1nsc(N)n1 | 4
* CCO/N=C(\C(=O)N[C@@H]1C(=O)N2C(C(=O)[O-])=C(CSc3nc(N)cc[n+]3C)CS[C@H]12)c1csc(N)n1 | 8
* CO/N=C(\C(=O)N[C@@H]1C(=O)N2C(C(=O)[O-])=C(CSc3nc(N)c(N)c(N)[n+]3C)CS[C@H]12)c1csc(N)n1 | 4

meta.source: patent EP0584797A2
